System: microorganisms (e.g., bacteria, yeasts, fungi)
experiment.notes: Targeting peptide binding to target microorganisms (Table 3)
test.parameters: microorganism(s) the targeting peptide binds; peptide binding conducted in aqueous buffers varied by peptide solubility, preferably 1x PBS
experimental.readout: Target(s)

# annotated cases, reported Target(s) shown
PF-481 (DELYEIMDKVIEEFNKDIEQNNNNGNNEDLTENKIN; Peptide with targeting and/or antimicrobial activity)	C. jeikeium
PF-554: peptide having multiple activities (chain 1 AKNFLTRTAEEIGEQAVREGNINGP; chain 2 AKNFLTRTAEEIGEQAVREGNINGP; Peptide with targeting and/or antimicrobial activity)	S. pneumoniae
PF-557: peptide having multiple activities (chain 1 AANKAREQAAAEAKRKAEEQAR; chain 2 AANKAREQAAAEAKRKAEEQAR; Peptide with targeting and/or antimicrobial activity)	S. pneumoniae
PF-542: peptide having multiple activities (chain 1 KKDNPSLNDQDKNAVLNLLALAK; chain 2 KKDNPSLNDQDKNAVLNLLALAK; Peptide with targeting and/or antimicrobial activity)	C. jeikeium
PF-550: peptide having multiple activities (chain 1 STENGWQEFESYADVGVDPRRYVPL; chain 2 STENGWQEFESYADVGVDPRRYVPL; Peptide with targeting and/or antimicrobial activity)	S. pneumoniae
PF-441 (TQVHKMARGIDPGPANGIYR; Peptide with targeting and/or antimicrobial activity)	C. jeikeium
PF-594: peptide having multiple activities (IVSAIV; Peptide with targeting and/or antimicrobial activity)	C. jeikeium
PF-435 (MSRWDGHSDKGEAPAGKPPMHGFGLNGENK; Peptide with targeting and/or antimicrobial activity)	C. jeikeium

Q: I am curious: what Target(s) value has been reported for PF-593: peptide having multiple activities (MEISTLKKEKLHVKDELSQYLANYKK; Peptide with targeting and/or antimicrobial activity) ?
Result: C. jeikeium

----------
Test system: microorganisms (e.g., bacteria, yeasts, fungi)
experiment.notes: Targeting peptide binding to target microorganisms (Table 3)
test.parameters: peptide binding in aqueous buffers varied by peptide solubility; preferably 1x PBS
Square brackets hold non-standard residues; d marks the D form. Ends that are not written are not given here. Aib = CC(C)(N)C(=O)O
experimental.readout: Target(s) (microorganisms bound by the targeting peptide)

# annotated cases, reported Target(s) (microorganisms bound by the targeting peptide) shown
PF-697 (chain 1 RADARAK; chain 2 RADARAK; Peptide with targeting and/or antimicrobial activity)	Mycobacteria spp
PF-793 (YTQ[Aib]NNASAYAMLLTNKDTVP)	S. mutans
PF-688 (chain 1 ARNHAVIPAG; chain 2 ARNHAVIPAG; Peptide with targeting and/or antimicrobial activity)	Mycobacteria spp
PF-691 (chain 1 HRTVEFGVLGTYLVSGGSL; chain 2 HRTVEFGVLGTYLVSGGSL; Peptide with targeting and/or antimicrobial activity)	Mycobacteria spp

Q: I am curious: what Target(s) (microorganisms bound by the targeting peptide) value has been reported for PF-716 (HGENHHHKSDEKDNDSSEKKD; Peptide with targeting and/or antimicrobial activity) ?
Result: S. mutans

Q: I am curious: what Target(s) (microorganisms bound by the targeting peptide) value has been reported for PF-649 (chain 1 CPRYPFVDVGPAGPWRARWRVGS; chain 2 CPRYPFVDVGPAGPWRARWRVGS; Peptide with targeting and/or antimicrobial activity) ?
Result: Mycobacteria spp

Q: I am curious: what Target(s) (microorganisms bound by the targeting peptide) value has been reported for PF-787 (MTERQRRALLKQHPEVVSWSDYLEKRKRRTGTAG; Peptide with targeting and/or antimicrobial activity) ?
Result: Mycobacteria spp.

Q: I am curious: what Target(s) (microorganisms bound by the targeting peptide) value has been reported for PF-696 (chain 1 IRSGISAAYARPLR; chain 2 IRSGISAAYARPLR; Peptide with targeting and/or antimicrobial activity) ?
Result: Mycobacteria spp

Q: I am curious: what Target(s) (microorganisms bound by the targeting peptide) value has been reported for PF-779 (IYGDFFNFYLCDISLKVNGLQPGGPVRTVKLFGQPTGRCTPQ; Peptide with targeting and/or antimicrobial activity) ?
Result: Mycobacteria spp.

Q: I am curious: what Target(s) (microorganisms bound by the targeting peptide) value has been reported for PF-699 (chain 1 GRAGVKCRRPTGR; chain 2 GRAGVKCRRPTGR; Peptide with targeting and/or antimicrobial activity) ?
Result: Mycobacteria spp
